system: SR; assay: NCI tumour cell line growth inhibition, 48 h
Active and inactive are the calls of the source. Rule as the data show it: active = GI50 up to about 1.1 µM and inactive = higher.
Give your call using only these classes: active, inactive

// known answers, use as guide
{"molecule": "COc1cc(CSc2ccc(O)cc2)cc(OC)c1OC", "discrete-label": "inactive"}
{"molecule": "CSc1nc(N)c2c(-c3ccccc3)c3c(nc2n1)CCCC3", "discrete-label": "inactive"}
{"molecule": "Oc1cc(-c2cccc(Cl)c2)nc2cc3c(cc12)OCO3", "discrete-label": "active"}
{"molecule": "Cc1ccc2c(c1)C(O)(c1ccccc1)CCS2 (centres undefined)", "discrete-label": "inactive"}
{"molecule": "Cc1cc2c(C)nn(Cc3ccc(Cl)cc3)c2c(C#N)c1C", "discrete-label": "inactive"}
{"molecule": "COc1nc(OC)nc(Sc2ccc(Sc3ccc(Sc4nc(OC)nc(OC)n4)cc3)cc2)n1", "discrete-label": "inactive"}

Turning now to a further record.
Recorded test outcome, item COc1cc([N+](=O)[O-])ccc1NC(=O)c1cccc([N+](=O)[O-])c1O
inactive

###

test system: A549; experiment: NCI tumour cell line growth inhibition, 48 h
Activity calls are given as the source filed them. Cut-off read from the data, not from the text of the source: active = GI50 up to about 1.1 µM and inactive = higher.
Give your call using only these classes: active, inactive

// known answers, use as guide
{"compound": "N=c1oc2ccc3ccccc3c2cc1-c1nc(O)c2ccccc2n1", "discrete-label": "inactive"}
{"compound": "CCCCCCCCCCCCCCCCCC(=O)Nc1ccn(C2CCC(COP(=O)(O)O)O2)c(=O)n1 (stereo not drawn)", "discrete-label": "inactive"}
{"compound": "O=C(NC(Nc1ccc(F)c(Cl)c1)(C(F)(F)F)C(F)(F)F)C(C(F)(F)F)C(F)(F)F", "discrete-label": "inactive"}
{"compound": "Cc1ccc(NC(=O)c2ccc(OP(=O)(O)Nc3ccc(C)cc3)cc2)cc1", "discrete-label": "inactive"}
{"compound": "OCC1CCCC(n2cnc3c(S)ncnc32)O1 (stereo not drawn)", "discrete-label": "inactive"}
{"compound": "Cc1ccc(NC(=O)/C(Cl)=C(/Cl)C(=O)O)cc1", "discrete-label": "inactive"}

Recorded test outcome, item CCCCn1c2c(n(CCCC)c1=S)-c1c(n(CCCC)c(=S)n1CCCC)SSc1c(n(CCCC)c(=S)n1CCCC)-c1c(n(CCCC)c(=S)n1CCCC)SSc1c(n(CCCC)c(=S)n1CCCC)-c1c(n(CCCC)c(=S)n1CCCC)SS2
inactive

Recorded test outcome, item c1ccc2c(c1)N=C(c1cccc3ccccc13)CC(c1ccc3c(c1)OCO3)S2 (stereo not drawn)
inactive

Recorded test outcome, item N#CC1=C(N)N(c2ccccc2)C(c2ccco2)C1(C#N)C#N (stereo not drawn)
inactive

Recorded test outcome, item COc1cc2c(cc1Oc1ccc(OC)c3c1CC1c4c(cc(OC)c(OC)c4-3)CCN1C)CC1c3c(cc(OC)c(OC)c3-2)CCN1C (stereo not drawn)
inactive

Recorded test outcome, item CCC(=O)C(C(=O)CC)c1c(OC(=O)c2ccccc2)ccc(O)c1C(=O)OC
inactive

###

tested on: M14; experiment: NCI tumour cell line growth inhibition, 48 h
Calls of active or inactive are those of the source. Rule as the data show it: active = GI50 up to about 1.1 µM and inactive = higher.
Give your call using only these classes: active, inactive

// known answers, use as guide
{"compound": "CC(C)CC(NC(=O)C(CSc1ccc([N+](=O)[O-])cc1)Cc1ccccc1)C(=O)Nc1ccccc1 (stereo not drawn)", "discrete-label": "inactive"}
{"compound": "CO/N=C(/C(=O)Nc1c[n+](CC(=O)[O-])cs1)c1csc(N)n1", "discrete-label": "inactive"}
{"compound": "CCC(=O)C(C(=O)CC)c1c(OC(=O)c2ccccc2)ccc(O)c1C(=O)OC", "discrete-label": "inactive"}
{"compound": "COc1ccc(-c2cc(=O)c3c(O)cccc3o2)c(OC)c1OC", "discrete-label": "inactive"}
{"compound": "COc1cccc2c1C(=O)c1ccc3cc(CO)cc(O)c3c1C2=O", "discrete-label": "active"}

Recorded test outcome, item CC(C)(/N=N/C(C)(C)C(=N)N)C(=N)N
inactive

Recorded test outcome, item S=C(S)NCNC(=S)S
inactive

Recorded test outcome, item COc1cc(-c2nn3c(=O)n(-c4ccc(Cl)cc4)c(=O)nc3s2)cc(OC)c1OC
inactive

Recorded test outcome, item c1ccc(/C(=N/Nc2cnccn2)c2ncccn2)cc1
inactive

Recorded test outcome, item CCc1ccccc1NC(=O)C1=C(C)NC(C)=C(C(=O)Nc2ccccc2CC)C1c1cccc([N+](=O)[O-])c1
inactive

Recorded test outcome, item OC1[C@H]([C@H]2CCCC[C@@H]2O)CCC[C@@H]1[C@@H]1CCCC[C@H]1O (stereo partly drawn)
inactive

Recorded test outcome, item O=C1c2ccccc2OCC12OC21C=CC(Cl)=CC1 (stereo not drawn)
inactive

Recorded test outcome, item COc1cc2c(cc1OC)C(C1(O)CCCCC1)NCC2 (stereo not drawn)
inactive

Recorded test outcome, item COc1ccc(C2=C(OC(=O)N(C)C)c3cccn3-c3cc(C(F)(F)F)ccc3S2)cc1
inactive

Recorded test outcome, item CC(C)=CC1C(C(=O)Oc2ccccc2C(C)C)C1(C)C (stereo not drawn)
inactive

Recorded test outcome, item CCOC(=O)/C=C(/C(=O)OCC)n1cc(C)c(=O)[nH]c1=O
inactive

Recorded test outcome, item CC1(C)OC1CC/C(=C/CBr)CBr (stereo not drawn)
inactive

Recorded test outcome, item CCOC(=O)C1CCC(=O)N1C(=O)c1ccc(Cl)cc1 (stereo not drawn)
inactive

Recorded test outcome, item CCOC(=O)C(C)(C)Oc1ccc2c(-c3ccc(Cl)cc3)c(-c3ccc(Cl)cc3)c(=O)oc2c1
inactive

Recorded test outcome, item Cc1ccc(NC(=O)CC(=O)n2nc(-c3ccccc3)c(/N=N/c3ccc(Cl)cc3)c2-c2ccccc2)cc1
inactive

Recorded test outcome, item CCCCCCCCCCCCc1ccsc1-c1ccc(-c2ccc(-c3sc(-c4cc(CCCCCCCCCCCC)c(-c5ccc(-c6ccc(-c7sccc7CCCCCCCCCCCC)s6)s5)s4)cc3CCCCCCCCCCCC)s2)s1
inactive

Recorded test outcome, item CN1CCN(CCn2c3c4ccccc4ccc3c3oc(=O)c4ccccc4c32)CC1
inactive

###

tested on: OVCAR-4; assay: NCI tumour cell line growth inhibition, 48 h
Active and inactive are the calls of the source. Cut-off read from the data, not from the text of the source: active = GI50 up to about 1.1 µM and inactive = higher.
Give your call using only these classes: active, inactive

// known answers, use as guide
{"compound": "COc1ccc(P2(=S)Oc3ccccc3-c3ccccc3O2)cc1", "discrete-label": "inactive"}
{"compound": "COC(=O)c1ccc(/C=C2\\Oc3ccccc3C2=O)cc1", "discrete-label": "inactive"}
{"compound": "Cc1c(C(=O)C/C(=N/NC(=O)C[n+]2ccccc2)C(=O)Nc2ccccc2)[n+]([O-])c2ccccc2[n+]1[O-]", "discrete-label": "inactive"}
{"compound": "Cc1cc(Br)ccc1/N=N/C1C(=O)ON=C1c1ccccc1 (stereo not given)", "discrete-label": "inactive"}
{"compound": "NCCc1ccc(S(=O)(=O)O)cc1[N+](=O)[O-]", "discrete-label": "inactive"}
{"compound": "CCCCc1c2c(nc3c1CCC/C3=C\\c1ccccc1)C(=O)CCC2", "discrete-label": "inactive"}
{"compound": "NCCSC1(O)C(=O)c2ccccc2-c2ccccc21 (stereo not given)", "discrete-label": "active"}
{"compound": "O=C1C=CC2(O[C@H](c3ccccc3)[C@@H](c3ccccc3)O2)C(SC(=O)c2ccccc2)C1 (stereo not given in full)", "discrete-label": "inactive"}

Recorded test outcome, item OC1CN(OC/C=C/c2ccccc2)CC(O)C1O (stereo not given)
inactive

Recorded test outcome, item CC1(C)OC1CC/C(=C/CBr)CBr (stereo not given)
inactive

###

tested on: NCI-H226; test: NCI tumour cell line growth inhibition, 48 h
The source made the active and inactive calls. No stated cut-off is given here; in the data, active = GI50 up to about 1.1 µM and inactive = higher.
Give your call using only these classes: active, inactive

{"compound": "C=CCN1CC2CN=NC2(C#N)C1 (stereo not drawn)", "discrete-label": "inactive"}
{"compound": "Cc1ccc2c(c1)C(O)(c1ccccc1)CCS2 (stereo not drawn)", "discrete-label": "inactive"}
{"compound": "CCN(C(=S)N[C@@H](Cc1ccccc1)C(=O)N[C@@H](CC(C)C)C(=O)OC)c1ccccc1", "discrete-label": "inactive"}
{"compound": "Cc1cc(O)c(C(C)C)cc1NC(=O)Nc1cccc2ccccc12", "discrete-label": "inactive"}

Recorded test outcome, item CC(C)NC(=O)OCc1c(COC(=O)NC(C)C)n(C)c2c1ccc1cc(Cl)c(Cl)cc12
inactive

Recorded test outcome, item CCN(CC)CCNc1ccc2ncn3c4c(OC)cccc4c(=O)c1c23
inactive

Recorded test outcome, item CCCCCCCCCCCCc1ccsc1-c1ccc(-c2ccc(-c3sc(-c4cc(CCCCCCCCCCCC)c(-c5ccc(-c6ccc(-c7sccc7CCCCCCCCCCCC)s6)s5)s4)cc3CCCCCCCCCCCC)s2)s1
inactive

###

test system: SNB-19; assay: NCI tumour cell line growth inhibition, 48 h
Active and inactive are the calls of the source. Rule as the data show it: active = GI50 up to about 1.1 µM and inactive = higher.
Give your call using only these classes: 1 (yes) = active, 0 (no) = inactive

{"compound": "CCCCCCCCCCSS(=O)(=O)c1ccc(C)cc1", "discrete-label": "0 (no)"}

Recorded test outcome, item CN(C)C(=O)C(F)(F)C(c1ccc(F)cc1)C1C(=O)N(C)C(=O)N(C)C1=O (configuration not stated)
0 (no)

Recorded test outcome, item COc1ccc(/C=C\c2cc(OC)c(OC)c(OC)c2)cc1OC
1 (yes)
